B1: library; numbered along this chain (parent)
chain: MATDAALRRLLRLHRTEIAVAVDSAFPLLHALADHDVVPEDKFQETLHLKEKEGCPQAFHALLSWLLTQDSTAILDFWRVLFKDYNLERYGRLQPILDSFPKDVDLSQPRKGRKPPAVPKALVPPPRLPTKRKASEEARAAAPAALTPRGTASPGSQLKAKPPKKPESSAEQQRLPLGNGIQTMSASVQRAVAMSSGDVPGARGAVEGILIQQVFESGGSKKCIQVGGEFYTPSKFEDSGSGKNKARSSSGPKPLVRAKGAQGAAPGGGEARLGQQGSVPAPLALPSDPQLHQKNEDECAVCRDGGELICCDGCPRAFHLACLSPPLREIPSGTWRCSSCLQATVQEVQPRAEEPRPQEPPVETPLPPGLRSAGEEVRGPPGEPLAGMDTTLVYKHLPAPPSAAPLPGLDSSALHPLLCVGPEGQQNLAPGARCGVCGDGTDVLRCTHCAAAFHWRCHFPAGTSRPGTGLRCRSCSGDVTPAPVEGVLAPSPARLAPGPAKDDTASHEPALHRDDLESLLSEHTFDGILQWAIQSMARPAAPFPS

Variants of: B1
Assay: AIRE transcriptional activation functional score (insulin promoter-GFP; nonsense median 0, synonymous median 1) (normalised score); higher = higher AIRE activity (more reporter activation)
Details: with insulin promoter-GFP reporter in HEK293
Could you label it YES if measured AIRE transcriptional activation functional score is 1 or higher, and NO otherwise?

mut=G218W assigned_category=NO
mut=K111C assigned_category=YES
mut=K164E assigned_category=NO
mut=A202C assigned_category=YES
mut=L308H assigned_category=YES
mut=E307I assigned_category=NO
mut=W531P assigned_category=NO
mut=S241C assigned_category=YES
mut=G313D assigned_category=YES
mut=E51T assigned_category=NO
mut=V487G assigned_category=NO
mut=L97H assigned_category=YES
mut=V443S assigned_category=NO
mut=L414T assigned_category=YES
mut=S249H assigned_category=NO
mut=L308T assigned_category=NO
mut=A493K assigned_category=NO
mut=K83G assigned_category=NO
mut=A540F assigned_category=NO
mut=V443G assigned_category=YES
mut=Q276F assigned_category=YES
mut=S535K assigned_category=NO
mut=L418Y assigned_category=YES
mut=K133R assigned_category=YES
mut=A152N assigned_category=NO
mut=A134C assigned_category=YES
mut=H396S assigned_category=NO
mut=A284K assigned_category=NO
mut=R272I assigned_category=YES
mut=C55R assigned_category=NO
mut=A281K assigned_category=YES
mut=P143L assigned_category=YES
mut=K253F assigned_category=NO
mut=P360H assigned_category=YES
mut=F459T assigned_category=NO
mut=G251C assigned_category=NO
mut=K131E assigned_category=NO
mut=K395T assigned_category=NO
mut=L32R assigned_category=NO
mut=G251M assigned_category=NO
mut=Q94L assigned_category=NO
mut=L32V assigned_category=NO
mut=V256Y assigned_category=YES
mut=G178Y assigned_category=YES
mut=C449I assigned_category=NO
mut=Q534I assigned_category=NO
mut=P266E assigned_category=NO
mut=D389F assigned_category=NO
mut=S135T assigned_category=YES
mut=K131M assigned_category=NO
mut=R203H assigned_category=NO
